Molecular target: LOX (Mus musculus)
Construct: Full length LOX cDNA was then PCR cloned into pEGFP-N1 (Clonetech), or biosensor vector proGFP2-N1
Assay: LOX activity in cysts assay (LOX-roGFP2 biosensor, MDCK cysts)
Settings: MDCK cysts, roGFP2 ratio at basal surface; read-out: LOX biosensor IC50 (cyst)
Protocol: LOX Activity in Cysts Assay (Tang et al, 2017). All cell lines used in this study were purchased from American Type Culture Collection (ATCC). Mycoplasma contamination was routinely monitored by PCR. Cells used were not found to be Mycoplasma positive. […] All photomicrographs were taken with a Leica TCS SP8 X confocal system. […] Emission of the biosensor was recorded at 500 nm˜530 nm range using sequential scans. […]
pIC50: −log10 of the molar value.
RECORDED_ENDPOINT: pIC50

Worked cases, pIC50 given:
[[record]]
smiles_entry = "CC1(C)C[C@@H]2CN(C(=O)N3CCOCC3)C[C@H]1N(c1ccc(N3CCS(=O)(=O)CC3)cc1)C2"
result = "> 6.74"

[[record]]
smiles_entry = "CCOc1cccc(N2C[C@H]3CN(C(=O)NCCO)C[C@@H]2C(C)(C)C3)c1"
result = "> 6.20"


Ask: Answer with reported pIC50 of CC1(C)C[C@@H]2CN(C(=O)N3CCS(=O)(=O)CC3)C[C@H]1N(c1ccc(N3CCN(S(C)(=O)=O)CC3)cc1)C2
Reply: > 6.74

Ask: Answer with reported pIC50 of CCOc1ccc(N2C[C@H]3CN(CCCC#N)C[C@@H]2C(C)(C)C3)cc1
Reply: > 6.20

Ask: Answer with reported pIC50 of CC1(C)C[C@@H]2CN(C(=O)NCCO)C[C@H]1N(c1ccc(N3CCCCC3)cc1)C2
Reply: > 6.74

---

Biological target: LOX (Mus musculus, UniProt P28301)
Construct: Full length LOX cDNA was then PCR cloned into pEGFP-N1 (Clonetech), or biosensor vector proGFP2-N1; expressed in transfected cells; host or cells: MDCK cells grown as cysts on Matrigel, G418-selected
Sequence (P28301 163-411): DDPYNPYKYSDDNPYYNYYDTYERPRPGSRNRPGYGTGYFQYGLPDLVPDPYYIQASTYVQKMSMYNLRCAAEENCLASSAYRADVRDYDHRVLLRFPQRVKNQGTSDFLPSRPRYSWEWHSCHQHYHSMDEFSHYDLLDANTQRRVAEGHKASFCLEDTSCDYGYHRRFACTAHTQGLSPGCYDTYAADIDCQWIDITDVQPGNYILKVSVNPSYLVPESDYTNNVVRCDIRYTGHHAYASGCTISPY
Test: LOX activity in cysts assay (LOX-roGFP2 biosensor, MDCK cysts)
Assay type: cell-based
Conditions: 10 uM; MDCK cysts; inhibitor added 30 min prior to imaging; DMSO = 0%, BAPN 1 mM = 100% inhibition; read-out: LOX biosensor inhibition (cyst) @ 10 uM
inhibition at 10 µM by entry:
For clarity, give the value followed by its unit.

Worked cases, inhibition at 10 µM given:
[[record]]
compound = "CC1(C)C[C@@H]2CN(C(=O)N3CCS(=O)(=O)CC3)C[C@H]1N(c1ccc(N3CCN(S(C)(=O)=O)CC3)cc1)C2"
result = "100%"

[[record]]
compound = "CCOc1ccc(N2C[C@H]3CN(C(=O)N(C)CCC#N)C[C@@H]2C(C)(C)C3)cc1"
result = "88%"

[[record]]
compound = "CCOc1ccc(N2C[C@H]3CN(C(=O)N4CCC(N5CCCC5)CC4)C[C@@H]2C(C)(C)C3)cc1"
result = "84%"

[[record]]
compound = "CCOc1ccc(N2C[C@H]3CN(C(=O)NC[C@@H](O)CO)C[C@@H]2C(C)(C)C3)cc1"
result = "100%"

[[record]]
compound = "CCOc1ccc(N2C[C@H]3CN(CC(O)CC#N)C[C@@H]2C(C)(C)C3)cc1 (stereo partly shown)"
result = "72%"

[[record]]
compound = "CCOc1ccc(N2C[C@@H]3CC(C)(C)[C@H]2CCN3C(=O)NCCO)cc1"
result = "79%"

[[record]]
compound = "CCOc1ccc(N2C[C@H]3CN(C(=O)Nc4cc(C)n[nH]4)C[C@@H]2C(C)(C)C3)cc1"
result = "73%"

[[record]]
compound = "CCOc1ccc(N2C[C@H]3CN(C4CCN(C)CC4)C[C@@H]2C(C)(C)C3)cc1"
result = "90%"

[[record]]
compound = "CC1(C)C[C@@H]2CN(c3ccc(N4CCS(=O)(=O)CC4)cc3)[C@H]1CCN2C(=O)N1CCS(=O)(=O)CC1"
result = "100%"

[[record]]
compound = "CCCS(=O)(=O)N1C[C@@H]2CN(c3ccc(OCC)cc3)[C@H](C1)C(C)(C)C2"
result = "54%"


Ask: Answer with reported inhibition at 10 µM of CCOc1ccc(N2C[C@H]3CN(Cc4ccc(Cl)cc4)C[C@@H]2C(C)(C)C3)cc1
Reply: 68%

Ask: Answer with reported inhibition at 10 µM of CCOc1ccc(N2C[C@H]3CN(CCCC#N)C[C@@H]2C(C)(C)C3)cc1F
Reply: 42%

Ask: Answer with reported inhibition at 10 µM of CNC(=O)N1C[C@@H]2CN(c3ccc(N4CCS(=O)(=O)CC4)cc3)[C@H](C1)C(C)(C)C2
Reply: 50%

The measurements presented in this section are drawn from patent US12060360B2.
